system: BALB/3T3 cells; test: MTT reduction assay, BALB/3T3 cells; assay type: cell-based, Mouse; conditions: MTT assay, BALB/3T3, 24 h incubation
reported_endpoint: IC50 (µM)
Hi! Could you send only the number? It should be in µM, unit omitted.

**Query** Given [Cl][Ni][Cl] [Nickel chloride, NiCl2] , respond with its IC50.
**Result** 700
